- measured.on: human GLP-1 receptor (human, UniProt P43220)
- protocol.details: displacement of [125I]-GLP-1-(7-36)NH2 from membranes with human GLP-1 receptor, SPA, high HSA (2.0%)
*1 amine or outer side, *2 acyl side, *3 side chain or, on linkers, in order; H or OH if unused. Where no end group is shown, it is not given here. Side-chain parts run from the residue outwards. [ ]: non-standard residue; d: D form. The star is where a group is joined. 9‑(3-carboxyphenoxy)nonanoyl = O=C(O)c1cccc(OCCCCCCCCC(=O)*)c1; Decanoyl(10-(4-HOOC-PhO)) = O=C(O)c1ccc(OCCCCCCCCCC(=O)*)cc1; Decanoyl(10-O(3-COOH-Ph)) = O=C(O)c1cccc(OCCCCCCCCCC(=O)*)c1; γGlu = O=C(O)[C@H](CCC(=O)[*:2])N[*:1]; C14 diacid = O=C(O)CCCCCCCCCCCCC(=O)*; AEEA = NCCOCCOCC(=O)O; Aib = CC(C)(N)C(=O)O
# IC50 per entry
Please give the number followed by its unit.

H[Aib]EGTFTSDVSSYLEEQAAREFIEWLVRGK([AEEA-AEEA-AEEA-AEEA-γGlu-Decanoyl(10-O(3-COOH-Ph))])K([AEEA-AEEA-AEEA-AEEA-γGlu-Decanoyl(10-O(3-COOH-Ph))]) [GLP-1 derivative of Example 28] : 173 nM

# input Look up and state reported IC50 for H[Aib]EGTFTSDVSSYLEEQAAREFIAWLVRGK([AEEA-AEEA-γGlu-Decanoyl(10-O(3-COOH-Ph))])K([AEEA-AEEA-γGlu-Decanoyl(10-O(3-COOH-Ph))]) [GLP-1 derivative of Example 15]
# output 126 nM

# input Look up and state reported IC50 for H[Aib]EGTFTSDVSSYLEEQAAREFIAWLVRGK([AEEA-AEEA-γGlu-Decanoyl(10-(4-HOOC-PhO))])K([AEEA-AEEA-γGlu-Decanoyl(10-(4-HOOC-PhO))]) [GLP-1 derivative of Example 3]
# output 77 nM

# input Look up and state reported IC50 for H[Aib]EGTFTSDVSSYLEEQAAREFIAWLVRGKK (not fully specified (residues 30, 31)) [GLP-1 derivative of Example 1]
# output 135 nM

# input Look up and state reported IC50 for H[Aib]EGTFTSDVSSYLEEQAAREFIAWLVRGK([AEEA-AEEA-γGlu-γGlu-C14 diacid])K([AEEA-AEEA-γGlu-γGlu-C14 diacid]) [GLP-1 derivative of Example 21]
# output 89 nM

# input Look up and state reported IC50 for H[Aib]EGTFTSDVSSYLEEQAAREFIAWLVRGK([AEEA-AEEA-AEEA-AEEA-γGlu-Decanoyl(10-O(3-COOH-Ph))])K([AEEA-AEEA-AEEA-AEEA-γGlu-Decanoyl(10-O(3-COOH-Ph))]) [GLP-1 derivative of Example 22]
# output 45 nM

# input Look up and state reported IC50 for H[Aib]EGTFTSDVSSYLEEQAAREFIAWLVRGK([AEEA-AEEA-γGlu-9‑(3-carboxyphenoxy)nonanoyl])K([AEEA-AEEA-γGlu-9‑(3-carboxyphenoxy)nonanoyl]) [GLP-1 derivative of Example 23]
# output 193 nM

# input Look up and state reported IC50 for H[Aib]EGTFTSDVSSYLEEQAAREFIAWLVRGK([AEEA-γGlu-γGlu-C14 diacid])K([AEEA-γGlu-γGlu-C14 diacid]) [GLP-1 derivative of Example 13]
# output 201 nM
